tested on: ACHN; assay: NCI tumour cell line growth inhibition, 48 h
Active and inactive are the calls of the source. No stated cut-off is given here; in the data, active = GI50 up to about 1.1 µM and inactive = higher.
ASSAY ENDPOINT: GI50

COMPOUND | ASSAY ENDPOINT | OBSERVED
Cc1c(Cl)c2ccccc2n1S(=O)(=O)c1ccccc1 | GI50 | 38.1 µM (inactive)

GI50 reported for this compound O=C1Nc2cc(F)ccc2C1=O : > 100 µM (inactive)

GI50 reported for this compound CCOP(=O)(OCC)C(F)(F)c1ccc(CC(NC(=O)OC(C)(C)C)C(=O)O)cc1 (stereo not drawn) : > 10 µM (inactive)

GI50 reported for this compound COc1cc(C(O)C(=O)c2cnc3cc([N+](=O)[O-])ccc3n2)ccc1O (stereo not drawn) : > 100 µM (inactive)

---

system: SK-OV-3; assay: NCI tumour cell line growth inhibition, 48 h
Activity calls are given as the source filed them. Rule as the data show it: active = GI50 up to about 1.1 µM and inactive = higher.
Catalogue of GI50 values

COMPOUND | GI50
O=c1[nH]c2ccc([N+](=O)[O-])c(Cl)c2c2ccccc12 | 1.66 µM (inactive)
CC(=O)Nc1ccc(OC2=CCN(C)CC2)cc1 | > 100 µM (inactive)
COc1cccc(C23CCCC(C2)NCC3Br)c1OC (centres undefined) | > 100 µM (inactive)

GI50 reported for this compound c1ccc2c(c1)nc1n2CNC1 : > 100 µM (inactive)

---

tested on: IGROV-1; assay: NCI tumour cell line growth inhibition, 48 h
Calls of active or inactive are those of the source. Cut-off read from the data, not from the text of the source: active = GI50 up to about 1.1 µM and inactive = higher.
Catalogue of GI50 values

MOLECULE | GI50
O=C1/C(=C/c2ccccc2)CNC/C1=C\c1ccccc1 | 1.87 µM (inactive)
O/N=C1\CC2(N3CCOCC3)CCC1(Cc1ccccc1)CC2 | 43.6 µM (inactive)

Now turn to the next molecule.
GI50 reported for this molecule COC(=O)CC(NC(=O)OCc1ccccc1)C(C(=O)OCc1ccccc1)C1(C)OCCO1 (stereo not drawn) : 40 µM (inactive)

---

tested on: RXF 393; test: NCI tumour cell line growth inhibition, 48 h
Active and inactive are the calls of the source. Cut-off read from the data, not from the text of the source: active = GI50 up to about 1.1 µM and inactive = higher.
ASSAY ENDPOINT: GI50

CHEMICAL STRUCTURE | GI50
CCOC(=O)C(c1c[nH]c2ccccc12)(c1c[nH]c2ccccc12)c1c[nH]c2ccccc12 | 21.7 µM (inactive)

GI50 reported for this molecule O=C1N[C@H](Cc2c[nH]cn2)C(=O)N2CCC[C@@H]12 : > 100 µM (inactive)

GI50 reported for this molecule CC1=C(C(=O)NNC(=O)CC#N)CC(C(=O)NNC(=O)CC#N)=C(C)N1 : > 100 µM (inactive)

---

tested on: OVCAR-3; experiment: NCI tumour cell line growth inhibition, 48 h
Activity calls are given as the source filed them. Cut-off read from the data, not from the text of the source: active = GI50 up to about 1.1 µM and inactive = higher.
Catalogue of GI50 values

Consider the reported GI50 for these compounds:
COMPOUND | GI50
COC(=O)C1=C2Nc3ccccc3C23CCN2C(O)C4(CC5CC67CCOC6CCN6CCC8(c9cccc(OC)c9N(C4)C58O)C67)C4OCCC4(C1)C23 (configuration not stated) | > 100 µM (inactive)
Cc1cc(Cl)cc2c1NC(=O)C2(O)CC(=O)c1ccc(Br)cc1 (configuration not stated) | 63 µM (inactive)
COC1=C(C)C(=O)C2C(C1=O)C(c1ccc(OC)c(OC)c1)[C@H]2C (some centres not stated) | > 100 µM (inactive)
Cc1ccc(NC(=O)c2cc(S(=O)(=O)Nc3nc4cccnc4[nH]3)c(SSc3cc(Cl)c(C(=O)Nc4ccc(C)cc4)cc3S(=O)(=O)Nc3nc4cccnc4[nH]3)cc2Cl)cc1 | > 100 µM (inactive)
O=C1c2ccccc2CC1C1(O)C(=O)Nc2ccccc21 (configuration not stated) | > 100 µM (inactive)
CCOC(=O)CSc1nnc(CSc2nc(-c3ccccc3)c(-c3ccccc3)[nH]2)n1-c1ccccc1 | > 100 µM (inactive)
CC1(C)[C@H]2CC[C@](C)(C2)[C@]1(S)Cc1ccccn1 | 21.7 µM (inactive)
COc1ccc2c(c1)CCC1=C/C(=N\NC(N)=O)CCC12C (configuration not stated) | > 10 µM (inactive)

GI50 reported for this compound CC(C)CCCC(C)[C@H]1CC[C@H]2[C@@H]3CC[C@H]4C[C@@H](CCC=C(c5cc(Cl)c(O)c(C(=O)OC(C)C)c5)c5cc(Cl)c(O)c(C(=O)OC(C)C)c5)CC[C@]4(C)[C@H]3CC[C@]12C (some centres not stated) : > 50 µM (inactive)

GI50 reported for this compound COc1cc2c(cc1OCCCCOc1cc3nc(C)nc(Cl)c3cc1OC)N=C[C@@H]1CCCN1C2=O : 2.06 µM (inactive)

GI50 reported for this compound CCOP(=O)(O)C(C)(C)NC : > 100 µM (inactive)

GI50 reported for this compound O=NN(CCCl)C(=O)N[C@H]1CC[C@H](CC(=O)O)CC1 : > 100 µM (inactive)

---

tested on: A549; assay: NCI tumour cell line growth inhibition, 48 h
Calls of active or inactive are those of the source. Cut-off read from the data, not from the text of the source: active = GI50 up to about 1.1 µM and inactive = higher.
ASSAY ENDPOINT: GI50

MOLECULE | GI50
NC(=O)NC(=O)c1cccc(CNc2ccc(C(=O)N[C@@H](CCC(=O)O)C(=O)O)cc2)n1 | > 100 µM (inactive)
COc1cc(/C=C2\Cc3ccccc3C2=O)cc(OC)c1OC | > 100 µM (inactive)
CCCC(=O)OC[n+]1cccc(-c2c(COC(=O)NC(C)C)c(COC(=O)NC(C)C)c3n2CCC3)c1 | 89.5 µM (inactive)
COc1ccc(Nc2n[nH]c(NS(=O)(=O)c3cc(C)c(Cl)cc3S)n2)cc1 | > 100 µM (inactive)
CCN(C(=O)N[C@H](C(=O)N[C@@H](C)C(=O)OC)C(C)C)c1ccccc1 | > 100 µM (inactive)

GI50 reported for this molecule CC1=C(C#N)C(C#N)(C#N)C(NN(C)C)C1 (configuration not stated) : 41.5 µM (inactive)

GI50 reported for this molecule [O-][S+]1Nc2c(Cl)cc(Cl)c(Cl)c2S1 (configuration not stated) : > 100 µM (inactive)

GI50 reported for this molecule NC(=O)c1cc2ccc(O)cc2o/c1=N/c1ccccc1 : 25.6 µM (inactive)

GI50 reported for this molecule CCOP(=O)(OCC)C(F)(F)c1ccc(CC(NC(=O)OC(C)(C)C)C(=O)O)cc1 (configuration not stated) : > 10 µM (inactive)

---

Catalogue of GI50 values
system: A549; assay: NCI tumour cell line growth inhibition, 48 h
Active and inactive are the calls of the source. Cut-off read from the data, not from the text of the source: active = GI50 up to about 1.1 µM and inactive = higher.

Consider the reported GI50 for these compounds:
COMPOUND | GI50
CCCCCCc1ccc(CCCCCCCC(=O)O)o1 | 50 µM (inactive)
SC1=NC2=C(CSC/C2=C\c2ccc(Cl)cc2)C(c2ccc(Cl)cc2)N1 (stereo not given) | 34.4 µM (inactive)

The value of GI50 recorded for CCCCCCCCCCCCCCCCCCCCCC(=O)Nc1ccn(C2OC(CO)C(O)C2O)c(=O)n1 (stereo not given) when tested on A549 reads 4.68 µM (inactive)

The value of GI50 recorded for CC1=C(C(=O)Nc2cc(=O)n(C)c(=O)n2C)C(c2cccc([N+](=O)[O-])c2)C(C(=O)Nc2cc(=O)n(C)c(=O)n2C)=C(C)N1 when tested on A549 reads > 100 µM (inactive)

The value of GI50 recorded for O=C1Nc2ccccc2/C1=N/N=C1NCCCCN1 when tested on A549 reads > 100 µM (inactive)

---

Catalogue of GI50 values
tested on: SNB-75; assay: NCI tumour cell line growth inhibition, 48 h
The source made the active and inactive calls. Rule as the data show it: active = GI50 up to about 1.1 µM and inactive = higher.

Consider the reported GI50 for these compounds:
COMPOUND | GI50
COc1ccc(/C=C2/C(C)=NN(c3cccc(Cl)c3)/C2=N/c2nc3ccccc3s2)cc1 | 26.8 µM (inactive)
CCN(CCO)CC1CCCC2CCCCC21 (centres undefined) | > 100 µM (inactive)
COc1cc(C2C3=C(NC(=O)C2C#N)c2ccc4ccccc4c2OCC3)cc(OC)c1OC (centres undefined) | 16.2 µM (inactive)
Cc1[nH]c(=O)nc(S)c1C(=O)Nc1cccc2cc3ccccc3cc12 | > 100 µM (inactive)

GI50 reported for this compound CCCC(=O)OC[n+]1cccc(-c2c(COC(=O)NC(C)C)c(COC(=O)NC(C)C)c3n2CCC3)c1 : 71.3 µM (inactive)

GI50 reported for this compound COC(=O)CCC(NC(=S)N/N=C/c1cccs1)C(=O)OC (centres undefined) : > 100 µM (inactive)

GI50 reported for this compound COc1cc2c3c(cc(Cl)nc3c1OC)C(O)(CC(=O)c1ccccc1)C(=O)N2 (centres undefined) : 14.8 µM (inactive)

---

tested on: MDA-MB-435; assay: NCI tumour cell line growth inhibition, 48 h
Calls of active or inactive are those of the source. Cut-off read from the data, not from the text of the source: active = GI50 up to about 1.1 µM and inactive = higher.
ASSAY ENDPOINT: GI50

Consider the reported GI50 for these molecules:
MOLECULE | TGT | GI50
O=P1(N(CCCl)CCCl)Oc2ccc(Cl)cc2Sc2c(ccc(Cl)c2Cl)O1 (stereo not given) | MDA-MB-435 | 7.1 µM (inactive)
CN(/N=C/c1ccccn1)C1=NCCCCN1 | MDA-MB-435 | > 100 µM (inactive)
CC1(C)[C@H]2Cc3cc4nc5ccccn5c4cc3[C@@H]1C2 | MDA-MB-435 | 15.3 µM (inactive)
OCCOCCN1CCN(CCCN2c3ccccc3Sc3ccc(C(F)(F)F)cc32)CC1 | MDA-MB-435 | 11.1 µM (inactive)

Now turn to the next molecule.
GI50 reported for this molecule CCOP(=O)(OCC)/C(C#N)=C/c1cn(C)cn1 : > 100 µM (inactive)

Where do the numbers come from? From ChEMBL document CHEMBL1201862.
